Origin of the recorded values: PubChem BioAssay (NCI)

- procedure.text: NCI Yeast Anticancer Drug Screen. Data for the bub3 strain (AID 167)
- details: S. cerevisiae bub3 mutant strain, at 50.0 µM
About 79,000 compounds went through this panel and 15% of them were active in at least one assay; those are over-represented in the sample as a whole. Activity calls are given as the source filed them. No stated cut-off is given here; in the data, active means growth inhibition above about 70%; inactive means the rest.
Field 'call' accepts active, inactive

Just curious, what result did N#CC(C(=O)CCCC(=O)Nc1ccc(Cl)cc1)c1ccccc1Cl (stereo not given) get here?
active

Just curious, what result did C#CCCOC(=O)CC1=C(C)/C(=C/c2ccc(S(C)=O)cc2)c2ccc(F)cc21 (stereo not given) get here?
active

Just curious, what result did "CNc1nc(N)nc(N(C)c2ccc(Br)cc2)c1N=O" get here?
inactive

Just curious, what result did "S=c1n(-c2ccc(Cl)cc2)c2nc3ccccc3nc(/c2=N\Nc2cc(Cl)ccc2Cl)n1-c1ccc(Br)cc1" get here?
active

Just curious, what result did "CC(C)CCOc1ccc(/C=C\C(=O)O)cc1" get here?
active

----------
- procedure.text: NCI Yeast Anticancer Drug Screen. Data for the sgs1 mgt1 strain (AID 161);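 further: 0% = growth of cultures given vehicle only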
- details: S. cerevisiae sgs1 mgt1 strain, at 50.0 µM
About 79,000 compounds went through this panel and 15% of them were active in at least one assay; those are over-represented in the sample as a whole. Active and inactive are the calls of the source. Cut-off read from the data, not from the text of the source: active = growth inhibition above about 70%; inactive = the rest.
Field 'call' accepts class 1 for active, class 0 for inactive

Just curious, what result did "Cc1cc(SCC(=O)c2ccc(Cl)cc2)cc(C)[o+]1" get here?
class 1

Just curious, what result did CCOC(=O)C1=C(C)Oc2cc3c(cc2C1c1cc(OC)c(OC)c(OC)c1)OCO3 (configuration not stated) get here?
class 0

Just curious, what result did "O=S1(=O)CCN(c2ccccc2CC(c2c[nH]c3ccccc23)c2c[nH]c3ccccc23)CC1" get here?
class 1

Just curious, what result did CC12CCC(=O)C=C1CCC1C2C(O)CC2(C)C(c3csc(N)n3)CCC12 (configuration not stated) get here?
class 1

Just curious, what result did Cc1ccc(S(=O)(=O)N/N=C2\CC(C)OC3=C2CCCCCC3)cc1 (configuration not stated) get here?
class 0

Just curious, what result did "O=C1C=CC(=O)N1C12CC3CC(CC(C3)C1)C2" get here?
class 1

Just curious, what result did "c1ccc(NNc2ccc3ccccc3n2)cc1" get here?
class 1

Just curious, what result did CCC1C(c2cccc(OC)c2O)c2cc3c(cc2OC1N1CCCC1)OCO3 (configuration not stated) get here?
class 0

Just curious, what result did "CC(C)c1ccc(O)c(Cc2cc(C(C)C)ccc2O)c1" get here?
class 1

Just curious, what result did "CSC(SC)(C(=O)O)c1cc(C)no1" get here?
class 0

Just curious, what result did OC(CCl)c1ccc2ccc3c(c2c1)Nc1ccccc1S3 (configuration not stated) get here?
class 1

Just curious, what result did CC(c1ccccc1)C(C(=O)O)(c1ccccc1)c1ccccc1 (configuration not stated) get here?
class 1

Just curious, what result did COc1ccc(C2NCc3c(sc4c3CCCC4)-n3cccc32)cc1 (configuration not stated) get here?
class 1

Just curious, what result did CC12OC(=O)C(C(N)=O)=C1C=C(c1ccccc1)CC2c1ccccc1 (configuration not stated) get here?
class 1

Just curious, what result did "c1ccc2c(c1)oc1cc3ccncc3cc12" get here?
class 1

Just curious, what result did "CCCCCCCCCCCCCCCCNC(=O)/C(=C\c1ccccc1O)NC(=O)c1ccccc1" get here?
class 1

Just curious, what result did "CC(/C=C/c1cccc(C)c1)=N\NC(N)=S" get here?
class 1

Just curious, what result did "CSC(=S)NN=C(c1ccccn1)c1ccccn1" get here?
class 1

Just curious, what result did "O=[N+]([O-])c1ccc2nc(Nc3ccccc3)c(Nc3ccccc3)nc2c1" get here?
class 0

Just curious, what result did "C/C(=N\NC(=S)N1CCN(C2CCCCC2)CC1)c1ccccn1" get here?
class 1

Just curious, what result did "O=C1C=CC(=O)C(c2ccc(Cl)cc2)=C1" get here?
class 1

Just curious, what result did NCC(O)CSc1ccc(Cl)c(Cl)c1 (configuration not stated) get here?
class 0

Just curious, what result did "CCOC(=O)CSc1c(C(=O)OCC)c(=O)n(-c2ccccc2)c(=S)n1-c1ccccc1" get here?
class 1

Just curious, what result did "CCOc1ccc(N=NS(=O)(=O)O)cc1" get here?
class 0

Just curious, what result did "CCOC(=O)C(=O)N1C(C)=C(C(=O)OCC)CC(C(=O)OCC)=C1C" get here?
class 0

Just curious, what result did "CCCC[NH-].CCCC[NH-].[I][Pt+2][I]" get here?
class 0

Just curious, what result did "CCCOC(=O)CSC#N" get here?
class 1

Just curious, what result did CCOC(=O)C(Cc1cc(I)c(Oc2ccc(OC)cc2)c(I)c1)NC(C)=O (configuration not stated) get here?
class 0

Just curious, what result did "CC(=O)OCCCCCCCCCCCCCCO" get here?
class 0

Just curious, what result did CC(=O)OC1CCC2(C)C3CCC4(C)C(CCC4(Br)C(=O)CBr)C3CC(Br)C2(Br)C1 (configuration not stated) get here?
class 0

Just curious, what result did Cc1ccc2c(c1)C1C(CC2)C2C(=O)OC(=O)C2C2CCc3ccc(C)cc3C21 (configuration not stated) get here?
class 0

Just curious, what result did "O=C(NCCCNCCCCNCCCNC(=O)c1cc(-c2ccccc2)nc2ccccc12)c1cc(-c2ccccc2)nc2ccccc12" get here?
class 1

Just curious, what result did "O=[N+]([O-])c1cccc(C=Nc2ccccc2O)c1" get here?
class 0

Just curious, what result did C=CCN1CCC(OC(=O)C(O)(C#CC)C2CCCC2)CC1 (configuration not stated) get here?
class 1

Just curious, what result did "Cc1cc(O)n(Cc2ccccc2)c(=O)c1" get here?
class 0

Just curious, what result did "CC(C)(C)c1ccc(-c2nc3ccccc3c(=O)o2)cc1" get here?
class 1

Just curious, what result did "O=C1C=CCCCC1(c1ccccc1)c1ccccc1" get here?
class 1

Just curious, what result did O=C1OC(c2ccc3c(c2)OCO3)Sc2ccccc21 (configuration not stated) get here?
class 0

Just curious, what result did "CCCCCCCCCCCCNCC(=O)O" get here?
class 1

Just curious, what result did CC(C)CCCC(O)CNCc1ccccc1 (configuration not stated) get here?
class 0

Just curious, what result did "COc1ccc(CSC2=C(C#N)C(=O)NC3(CCCCC3)S2)cc1" get here?
class 0

Just curious, what result did "Cc1ccc(C(=O)CCCN2CCOCC2)c(C)c1" get here?
class 0

Just curious, what result did "Cc1cc(N(CCC#N)CCC#N)ccc1/C(Sc1ccccc1)=C(\NC(=O)/C=C/c1ccccc1)C(=O)Sc1ccccc1" get here?
class 1

Just curious, what result did O=C(CCCCOCCCCC(=O)OCC1CCCO1)OCC1CCCO1 (configuration not stated) get here?
class 0

Just curious, what result did "O=C1C(Cl)=C(c2ccc([N+](=O)[O-])cc2)C(=O)c2c(O)cccc21" get here?
class 1

Just curious, what result did CCN(CC)CCOc1ccc(C(O)(Cc2ccc(Cl)cc2)c2ccccc2)cc1 (configuration not stated) get here?
class 1

Just curious, what result did COC(=O)C1=C(C(=O)OC)C2C(C)=CC(C)=CN2C(C(=O)OC)=C1C(=O)OC (configuration not stated) get here?
class 0
